biological target: Rat Adenosine A2A Receptor (Rattus norvegicus); construct: tissue Nippon SLC (animals); host or cells: rat (SD) corpus striatum membrane homogenate; assay: Adenosine A2A receptor binding test (3H-CGS21680 binding, rat corpus striatum); details: test compound 10^−7 mol/L, 25° C., 120 minutes, read-out: Rat Adenosine A2A Receptor Binding Inhibition rate (%) (10^−7 mol/L)
Sequence (P30543 whole entry): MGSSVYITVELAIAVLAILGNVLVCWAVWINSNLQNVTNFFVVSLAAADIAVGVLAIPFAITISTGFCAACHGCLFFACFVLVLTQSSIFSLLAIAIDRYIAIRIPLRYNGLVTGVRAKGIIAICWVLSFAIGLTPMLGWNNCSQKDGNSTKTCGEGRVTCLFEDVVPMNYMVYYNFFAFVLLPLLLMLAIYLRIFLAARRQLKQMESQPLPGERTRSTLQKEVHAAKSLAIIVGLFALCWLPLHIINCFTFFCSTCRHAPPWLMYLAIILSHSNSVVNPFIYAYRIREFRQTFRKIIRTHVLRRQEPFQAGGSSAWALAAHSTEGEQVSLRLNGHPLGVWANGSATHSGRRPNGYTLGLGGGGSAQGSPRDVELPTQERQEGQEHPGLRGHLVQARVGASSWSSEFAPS
measured-attribute: inhibition at 0.1 µM (%)
Respond with the bare value in %.

## Task # query: inhibition at 0.1 µM of entry O=C(Nc1nc(-c2ccco2)c(CN2CCSCC2)s1)c1ccncc1 [Compound 87]
## Result 100

## Task For O=C(Nc1nc(-c2ccco2)c(C(=O)C2CCOCC2)s1)c1ccc(F)cc1 [Compound 468] , what is its reported inhibition at 0.1 µM?
## Result 93

## Task Look at this molecule and give its reported inhibition at 0.1 µM. O=C(Nc1nc(-c2ccco2)c(C(=O)c2ccccn2)s1)c1ccncc1 [Compound 187]
## Result 86

## Task May I ask what inhibition at 0.1 µM has been recorded for O=C(Nc1nc(-c2ccco2)c(Cc2ccccc2)s1)c1ccncc1 [Compound 23] ?
## Result 85

## Task Give the measured inhibition at 0.1 µM of Cc1ccc(C(=O)Nc2nc(-c3ccco3)c(C(=O)C3CCOCC3)s2)cn1 [Compound 504] .
## Result 100

## Task Fill in: inhibition at 0.1 µM of O=C(Nc1nc(-c2ccco2)c(-c2ccncc2)s1)c1ccncc1 [Compound 1] is ___
## Result 90

## Task Would you mind telling me what inhibition at 0.1 µM value was observed for O=C(Nc1nc(-c2ccco2)c(C(=O)c2ccccc2)s1)c1ccc(=O)[nH]c1 [Compound 149] ?
## Result 91

## Task Suppose we examine the molecule O=C(Nc1nc(-c2ccco2)c(C(=O)c2ccccn2)s1)c1ccco1 [Compound 234] ; what inhibition at 0.1 µM value has been reported?
## Result 100

## Task Would you mind telling me what inhibition at 0.1 µM value was observed for O=C(Nc1nc(-c2ccco2)c(C(=O)C2CCOCC2)s1)c1ccco1 [Compound 511] ?
## Result 88

## Task I am curious: what inhibition at 0.1 µM value has been reported for CC(C)n1nc(-c2sc(NC(=O)c3ccncc3)nc2-c2ccco2)ccc1=O [Compound 131] ?
## Result 99

## Task Tell me the measured inhibition at 0.1 µM of O=C(c1ccccn1)c1sc(NC(=O)C2CC2)nc1-c1ccco1 [Compound 191] , please.
## Result 98

## Task Give its inhibition at 0.1 µM value. Item: O=C(CN1CCOCC1)Nc1nc(-c2ccco2)c(C(=O)C2CCOCC2)s1 [Compound 558]
## Result 92

## Task I have this molecule here, O=C(Nc1nc(-c2ccco2)c(CN2CCOCC2)s1)c1cccnc1 [Compound 94] , and I need its recorded inhibition at 0.1 µM.
## Result 100

## Task Reported inhibition at 0.1 µM for O=C(Nc1nc(-c2ccco2)c(-c2ccncc2)s1)c1cccnc1 [Compound 5] : what is it?
## Result 100

## Task // inhibition at 0.1 µM lookup, key: CS(=O)(=O)c1ccc(N2CCC(C(=O)Nc3nc(-c4ccco4)c(N4CCOCC4)s3)CC2)nc1 [Compound 46]
## Result 95

## Task Give the measured inhibition at 0.1 µM of CCOC(=O)c1sc(NC(=O)c2ccncc2)nc1-c1ccco1 [Compound 24] .
## Result 88

## Task Given the molecule O=C(Nc1nc(-c2ccco2)c(-c2ccncc2)s1)c1ccc(Cn2ccnc2)cc1 [Compound 19] , what is its reported inhibition at 0.1 µM?
## Result 90

## Task Data request, read-out inhibition at 0.1 µM, for O=C(Nc1nc(-c2ccco2)c(-c2ccncc2)s1)c1ccc(O)nc1 [Compound 11]
## Result 100

## Task Fill in the blank: the reported inhibition at 0.1 µM of O=C(Nc1nc(-c2ccco2)c(C(=O)C2CCOCC2)s1)C1CC1 [Compound 456] is ____.
## Result 94

## Task What value of measured inhibition at 0.1 µM is listed for O=C(Nc1nc(-c2ccco2)c(C(=O)C2CCOCC2)s1)c1ccncc1 [Compound 455] ?
## Result 100

## Task May I ask what inhibition at 0.1 µM has been recorded for O=C(Nc1nc(-c2ccco2)c(C(=O)c2nccs2)s1)c1ccncc1 [Compound 348] ?
## Result 100

## Task Requested read-out: inhibition at 0.1 µM. Entry: COc1cccc(C(=O)Nc2nc(-c3ccco3)c(C(=O)C3CCOCC3)s2)c1 [Compound 462]
## Result 99

## Task What does the record list as inhibition at 0.1 µM for COC(=O)Nc1nc(-c2ccco2)c(C(=O)c2ccccn2)s1 [Compound 249] ?
## Result 85

## Task Find the recorded inhibition at 0.1 µM belonging to O=C(Nc1nc(-c2ccco2)c(C(=O)c2ccccc2)s1)c1ccncc1 [Compound 99] and report it.
## Result 98

## Task Need inhibition at 0.1 µM of O=C(Nc1nc(-c2ccco2)c(C(=O)C2CCOCC2)s1)c1ccc(Cl)nc1 [Compound 502] , thanks.
## Result 90

## Task Suppose we examine the molecule O=C(Nc1nc(-c2ccco2)c(-c2ccncc2)s1)C1CCCCC1 [Compound 4] ; what inhibition at 0.1 µM value has been reported?
## Result 95

## Task Recorded inhibition at 0.1 µM of O=C(Nc1nc(-c2ccco2)c(-c2ccncc2)s1)c1ccoc1 [Compound 9] , please.
## Result 100

## Task Look up inhibition at 0.1 µM for this molecule: CN1CCN(c2cc(C(=O)Nc3nc(-c4ccco4)c(N4CCOCC4)s3)ccn2)CC1 [Compound 41]
## Result 92

## Task Which value of inhibition at 0.1 µM has been reported for O=C(Nc1nc(-c2ccco2)c(-c2ccncc2)s1)c1ccco1 [Compound 8] in the records?
## Result 100

## Task Item under review: N#Cc1ccc(C(=O)Nc2nc(-c3ccco3)c(C(=O)C3CCOCC3)s2)o1 [Compound 515] . Reported inhibition at 0.1 µM?
## Result 95

## Task State the recorded inhibition at 0.1 µM for this entry: O=C(Nc1nc(-c2ccco2)c(C(=O)c2ccc(F)cc2)s1)c1ccncc1 [Compound 170]
## Result 87

## Task // query inhibition at 0.1 µM value for entry N#Cc1ccc(C(=O)Nc2nc(-c3ccco3)c(C(=O)c3ccccn3)s2)cc1 [Compound 206]
## Result 95
